assay: LM CLint (microsomal stability), human; type: in vitro ADME; details: liver microsomes, read-out: CLint Microsomes, Human (h)
Please provide measured microsomal CLint at 1 µM for the entries that follow.
Dear colleague, please return just the value in µL/min/mg, with no unit written.

# lookup: microsomal CLint at 1 µM of Cc1cnc2nc(C3CC3)c(C(=O)NCc3ccc(-c4cc5n(n4)CCN(S(=O)(=O)C(C)C)C5)cc3)n2c1
111

Which measured microsomal CLint at 1 µM value corresponds to CCc1nc2ncc(C)cn2c1C(=O)NCc1ccc(-c2cc3n(n2)CCN(S(=O)(=O)C(F)(F)F)C3)cc1 ?
176

Recorded microsomal CLint at 1 µM for CCc1nc2ncc(C)cn2c1C(=O)NCc1ccc(-c2nc3n(n2)CCN(S(=O)(=O)N2CCCC2)C3)cc1 , please?
58.5

Param item = CCc1nc2ccc(Cl)cn2c1C(=O)NCc1ccc(-c2nc3n(n2)CCN(S(=O)(=O)C(F)(F)F)C3)cc1 ; retrieve measured microsomal CLint at 1 µM.
30.3

Data request, read-out microsomal CLint at 1 µM, for CCc1nc2ncc(C)cn2c1C(=O)NCCc1ccc(-c2nc3n(n2)CCN(S(=O)(=O)C(F)(F)F)C3)cc1
39.6

Given Cc1cnc2nc(C3CC3)c(C(=O)NCc3ccc(-c4cn5c(n4)CN(S(=O)(=O)C(F)(F)F)CC5)cc3)n2c1 , state its recorded microsomal CLint at 1 µM.
98.1

* * *

assay: Mitochondrial toxicity (Glu/Gal) assay; type: cell-based; conditions: mitotoxicity score, Glu/Gal assay
readout-kind: Score

The examples below pair each entry with its known result.
- compound: "CCc1nc2sc(C)cn2c1C(=O)NCc1ccc(-c2nc3n(n2)CCN(S(=O)(=O)C(F)(F)F)C3)cc1"
  readout-kind: "Score"
  measured-value: "[x]0"
- compound: "CCc1nc2cc(NC)c(Cl)cn2c1C(=O)NCc1ccc(-c2nc3n(n2)CCN(S(=O)(=O)C(F)(F)F)C3)c(F)c1"
  readout-kind: "Score"
  measured-value: "[x]1"
- compound: "CCc1nc2ncc(C)cn2c1C(=O)NCc1cccc(-c2nc3n(n2)CCN(S(=O)(=O)C(F)(F)F)C3)c1"
  readout-kind: "Score"
  measured-value: "[x]1"
- compound: "O=C(NCc1ccc(-c2cc3n(n2)CCN(S(=O)(=O)C(F)(F)F)C3)cc1)c1c(C(F)F)nc2ccccn12"
  readout-kind: "Score"
  measured-value: "[x]3"
- compound: "CCc1nc2ncc(C)cn2c1C(=O)NCc1ccc(C2CCN(c3nc4n(n3)CCN(S(=O)(=O)C(F)(F)F)C4)C2)cc1 (stereo not shown)"
  readout-kind: "Score"
  measured-value: "[x]3"

Please give the measured Score for this compound: CCc1nc2ccc(C(C)C)cn2c1C(=O)NCc1ccc(-c2nc3n(n2)CCN(S(=O)(=O)C(F)(F)F)C3)cc1
[x]0

Reported Score for Cc1nc2sc(Cl)cn2c1C(=O)NCc1ccc(-c2nc3n(n2)CCN(S(=O)(=O)C(F)(F)F)C3)cc1 : what is it?
[x]3

* * *

Task for the reader: assign each of the following molecules its reported microsomal CLint at 1 µM.
assay: LM CLint (microsomal stability), mouse; format: in vitro ADME; details: microsomes, 1 μm, read-out: CLint Microsomes, Mouse (m)
Just the number in µL/min/mg, nothing appended.

Name the recorded microsomal CLint at 1 µM for CCc1nc2ncc(C)cn2c1C(=O)NCCc1ccc(-c2nc3n(n2)CCN(S(=O)(=O)C(F)(F)F)C3)cc1 [Compound 66] .
92.3

Need microsomal CLint at 1 µM, item CCc1nc2ccc(Cl)cn2c1C(=O)NCc1cnc(-c2nc3n(n2)CCN(S(=O)(=O)C(F)(F)F)C3)c(F)c1 [Compound 15]
50.6

# query: microsomal CLint at 1 µM of entry CCc1nc2nc3c(cn2c1C(=O)NCc1ccc(-c2nc4n(n2)CCN(S(=O)(=O)C(F)(F)F)C4)c(F)c1)CCOC3 [Compound 18]
36.9

Every entry's value here was drawn from patent US20240199651A1.
